FYI, the data here is from PubChem BioAssay.

Experiment: reduced SW480 viability measured with CellTiter-Glo, NPC library, primary (AID 1117343)
Settings: CellTiter-Glo luminescence; at 20 µM (top of the series)
# key: entry, value: viability decrease (inhibition)

>  <COMPOUND>
O=C(O)c1cc(O)c(O)c(O)c1

>  <MEASURE UNIT>
%

>  <viability decrease (inhibition)>
36.1

$$$$
>  <COMPOUND>
OC(CCN1CCCCC1)(c1ccccc1)c1ccccc1

>  <MEASURE UNIT>
%

>  <viability decrease (inhibition)>
27

$$$$
>  <COMPOUND>
NS(=O)(=O)Cc1noc2ccccc12

>  <MEASURE UNIT>
%

>  <viability decrease (inhibition)>
44.2

$$$$
>  <COMPOUND>
Oc1cc(O)c2c(c1)O[C@H](c1ccc(O)c(O)c1)[C@H](O)C2

>  <MEASURE UNIT>
%

>  <viability decrease (inhibition)>
-72.1

$$$$
>  <COMPOUND>
O=C(Nc1ccc([N+](=O)[O-])cc1Cl)c1cc(Cl)ccc1O

>  <MEASURE UNIT>
%

>  <viability decrease (inhibition)>
120

$$$$
>  <COMPOUND>
Nc1ccc(S(=O)(=O)Nc2ccccn2)cc1

>  <MEASURE UNIT>
%

>  <viability decrease (inhibition)>
17.6

$$$$
>  <COMPOUND>
O=C1NCC2(CCN(CCc3ccccc3)CC2)O1

>  <MEASURE UNIT>
%

>  <viability decrease (inhibition)>
48

$$$$
>  <COMPOUND>
CCCOc1ccc(C(=O)OCCN(CC)CC)cc1N

>  <MEASURE UNIT>
%

>  <viability decrease (inhibition)>
36

$$$$
>  <COMPOUND>
Cn1c(=O)c2c(ncn2CCO)n(C)c1=O

>  <MEASURE UNIT>
%

>  <viability decrease (inhibition)>
-1.2

$$$$
>  <COMPOUND>
CC(=O)Oc1c(C)c(C)c2c(c1C)CC[C@@](C)(CCC[C@H](C)CCC[C@H](C)CCCC(C)C)O2

>  <MEASURE UNIT>
%

>  <viability decrease (inhibition)>
-13.6

$$$$
>  <COMPOUND>
CCN1CCN(c2cc3c(cc2F)c(=O)c(C(=O)O)cn3C2CC2)CC1

>  <MEASURE UNIT>
%

>  <viability decrease (inhibition)>
11.7

$$$$
>  <COMPOUND>
Cc1c[nH]c2ccccc12

>  <MEASURE UNIT>
%

>  <viability decrease (inhibition)>
15

$$$$

###

Assay: drug combination growth inhibition, ovarian cancer – cell-based, oncology-focused library, rucaparib conditional, profiling panel (AID 1508598)
Conditions: patient-derived ovarian cancer cells, CellTiter-Glo viability, 144 h; at 5 µM; OCI-C5x cells; with rucaparib 10 µM; hits give low values; 100% = cells with rucaparib alone
# key: entry, value: viability

>  <MOLECULE>
Cc1nc2ccc(CN(C)c3ccc(C(=O)N[C@@H](CCC(=O)O)C(=O)O)s3)cc2c(=O)[nH]1

>  <MEASURE UNIT>
%

>  <viability>
16.1

$$$$
>  <MOLECULE>
COc1ccccc1OCC(O)CN1CCN(CC(=O)Nc2c(C)cccc2C)CC1 (stereo unspecified)

>  <MEASURE UNIT>
%

>  <viability>
67.5

$$$$
>  <MOLECULE>
Cc1cc2c(C(C)C)c(O)c(O)c(C=O)c2c(O)c1-c1c(C)cc2c(C(C)C)c(O)c(O)c(C=O)c2c1O

>  <MEASURE UNIT>
%

>  <viability>
130

$$$$
>  <MOLECULE>
CN(Cc1cnc2nc(N)nc(N)c2n1)c1ccc(C(=O)N[C@@H](CCC(=O)O)C(=O)O)cc1

>  <MEASURE UNIT>
%

>  <viability>
27.2

$$$$
>  <MOLECULE>
CC[C@@]1(O)C(=O)OCc2c1cc1n(c2=O)Cc2cc3c(CN(C)C)c(O)ccc3nc2-1

>  <MEASURE UNIT>
%

>  <viability>
4.91

$$$$
>  <MOLECULE>
COc1cc2c(N3CCN(C(=O)Nc4ccc(OC(C)C)cc4)CC3)ncnc2cc1OCCCN1CCCCC1

>  <MEASURE UNIT>
%

>  <viability>
158

$$$$
>  <MOLECULE>
O=NN(CCCl)C(=O)NC1CCCCC1

>  <MEASURE UNIT>
%

>  <viability>
118

$$$$
>  <MOLECULE>
N#Cc1ccc(C(c2ccc(C#N)cc2)n2cncn2)cc1

>  <MEASURE UNIT>
%

>  <viability>
113

$$$$
>  <MOLECULE>
CC(c1cc2ccccc2s1)N(O)C(N)=O (stereo unspecified)

>  <MEASURE UNIT>
%

>  <viability>
113

$$$$
>  <MOLECULE>
COC(=O)Nc1nc2ccc(C(=O)c3cccs3)cc2[nH]1

>  <MEASURE UNIT>
%

>  <viability>
55.3

$$$$
>  <MOLECULE>
CCC(C)n1ncn(-c2ccc(N3CCN(c4ccc(OC[C@H]5CO[C@](Cn6cncn6)(c6ccc(Cl)cc6Cl)O5)cc4)CC3)cc2)c1=O (stereo partly specified)

>  <MEASURE UNIT>
%

>  <viability>
135

$$$$
